# assay.details: Pharmacokinetics study of KDG-0271 in male CD1 mice (Example 4)
# Type: in vivo
# measurement.parameters: mouse, plasma, 50 mg/kg PO

compound | unit.string | AUC(0-t)
Cc1n[nH]c2c1C(c1cc(C#CC3CN(C(=O)OC(C)(C)C)C3)cc(CO)c1)(C(C)C)C(C#N)=C(N)O2 (stereo not shown) | ng·h/mL | 1900

* * *

# System: HCT116
# assay.details: HCT116 growth inhibition assay
# Format: cell-based
# measurement.parameters: without formate

compound | IC50
Cc1nnc(N2CCC(C#Cc3cc(CO)cc(C4(C(C)C)C(C#N)=C(N)Oc5[nH]nc(C)c54)c3)CC2)o1 (stereo not shown) [KDG-0478] | C″
Cc1n[nH]c2c1C(c1cc(C#CC3(C)CCN(C(=O)OC(C)(C)C)CC3)cc(CO)c1)(C(C)C)C(C#N)=C(N)O2 (stereo not shown) [KDG-0296] | C″
Cc1n[nH]c2c1C(c1cc(C#C[C@H]3C[C@H](NC(=O)CN(C)C)C3)cc(CO)c1)(C(C)C)C(C#N)=C(N)O2 (stereo partly shown) [KDG-0555] | C″
Cc1n[nH]c2c1[C@](c1cc(C#CC3(C(F)(F)F)CN(C(=O)OC(C)(C)C)C3)cc(CO)c1)(C(C)C)C(C#N)=C(N)O2 [KDG-0301] | A″
CC(=O)OCc1cc(C#CC2CN(C(=O)OC(C)(C)C)C2)cc(C2(C(C)C)C(C#N)=C(N)Oc3[nH]nc(C)c32)c1 (stereo not shown) [KDG-0284] | B″
Cc1n[nH]c2c1C(c1cc(C#CC3CN(C(=O)NC(C)(C)C)C3)cc(CO)c1)(C(C)C)C(C#N)=C(N)O2 (stereo not shown) [KDG-0412] | D″
CC(=O)O[C@]1(C)CC[C@H](C#Cc2cc(CO)cc(C3(C(C)C)C(C#N)=C(N)Oc4[nH]nc(C)c43)c2)CC1 (stereo partly shown) [KDG-0272] | A″

* * *

# assay.details: Pharmacokinetics study of KDG-0271 in male CD1 mice (Example 3)
# Format: in vivo
# measurement.parameters: male, mouse; CD1 mice, plasma, 1 mg/kg IV, 0.083 h; read-out: Concentration IV_Mean

compound | unit.string | concentration at 0.083 h
Cc1n[nH]c2c1C(c1cc(C#CC3CN(C(=O)OC(C)(C)C)C3)cc(CO)c1)(C(C)C)C(C#N)=C(N)O2 (stereo not shown) | µg/mL | 0.301

* * *

# assay.details: Mouse liver microsome assay (metabolic stability)
# Assay type: in vitro ADME
# measurement.parameters: mouse liver microsomes, in vitro half-life
# Description: Example 6. Mouse Liver Microsome Assay Metabolic stability of several compounds in mouse liver microsomes was tested. Briefly, a master solution was prepared according to Table 31. […] All calculations were carried out using Microsoft Excel. Peak areas were determined from extracted ion chromatograms. The slope value, k, was determined by linear regression of the natural logarithm of the remaining percentage of the parent drug versus incubation time curve. […]
measured.quantity: half-life at 2 µM

compound | endpoint.result
Cc1n[nH]c2c1C(c1cc(C#CC3CN(C(=O)OC(C)(C)C)C3)cc(CF)c1)(C(C)C)C(C#N)=C(N)O2 (stereo not shown) [KDG-0345] | 5 to 10 min
Cc1c[nH]c2c1C(c1cc(CO)cc(-c3ccc(C4CN(C(=O)OC(C)(C)C)C4)cc3)c1)(C(C)C)C(C#N)=C(N)O2 (stereo not shown) [KDG-0453] | 10 to 20 min
Cc1n[nH]c2c1C(c1cc(C#CC3CN(C(=O)OC(C)(C)C)C3)cc(CO)c1)(C(C)C)C(C#N)=C(N)O2 (stereo not shown) [KDG-0271] | 10 to 20 min
Cc1n[nH]c2c1C(c1cc(C#C[C@@H]3C[C@H]3CO)cc(CO)c1)(C(C)C)C(C#N)=C(N)O2 (stereo partly shown) [KDG-0136] | 10 to 20 min
Cc1n[nH]c2c1C(c1cc(C#C[C@@H]3CC[C@@H]3CNC(=O)OC(C)(C)C)cc(CO)c1)(C(C)C)C(C#N)=C(N)O2 (stereo partly shown) [KDG-0490] | < 5 min
Cc1n[nH]c2c1C(c1cc(C#C[C@H]3C[C@@H](C(C)(C)O)C3)cc(C(C)(C)O)c1)(C(C)C)C(C#N)=C(N)O2 (stereo partly shown) [KDG-0261-100] | < 5 min
Cc1n[nH]c2c1C(c1cc(C#CC3CCOCC3)cc(CO)c1)(C(C)C)C(C#N)=C(N)O2 (stereo not shown) [KDG-0273] | < 5 min
Cc1n[nH]c2c1C(c1cc(C#C[C@H]3CC[C@@H](NC(=O)OC(C)(C)C)C3)cc(CO)c1)(C(C)C)C(C#N)=C(N)O2 (stereo partly shown) [KDG-0505] | < 5 min
Cc1nnc(N2CCC(C#Cc3cc(CO)cc(C4(C(C)C)C(C#N)=C(N)Oc5[nH]nc(C)c54)c3)CC2)o1 (stereo not shown) [KDG-0478] | 5 to 10 min
COC(=O)N1CC(F)(C#Cc2cc(CO)cc([C@@]3(C(C)C)C(C#N)=C(N)Oc4[nH]nc(C)c43)c2)C1 [KDG-0313] | ≥ 20 min
Cc1n[nH]c2c1C(c1cc(C#CC3(F)CCN(C(=O)OC(C)(C)C)CC3)cc(CO)c1)(C(C)C)C(C#N)=C(N)O2 (stereo not shown) [KDG-0297] | 5 to 10 min
Cc1n[nH]c2c1C(c1cc(C#C[C@H]3C[C@H](COC(N)=O)C3)cc(C(C)(C)O)c1)(C(C)C)C(C#N)=C(N)O2 (stereo partly shown) [KDG-0262] | < 5 min
Cc1n[nH]c2c1C(c1cc(C#C[C@H]3C[C@H](C(=O)N(C)C)C3)cc(CO)c1)(C(C)C)C(C#N)=C(N)O2 (stereo partly shown) [KDG-0265] | 5 to 10 min
Cc1n[nH]c2c1C(c1cc(C#C[C@H]3CC[C@@H](NC(=O)OC(C)(C)C)CC3)cc(CO)c1)(C(C)C)C(C#N)=C(N)O2 (stereo partly shown) [KDG-0321] | < 5 min
Cc1n[nH]c2c1C(c1cc(C#CC3CCN(C(=O)OC(C)(C)C)CC3)cc(CO)c1)(C(C)C)C(C#N)=C(N)O2 (stereo not shown) [KDG-0289] | 5 to 10 min
Cc1n[nH]c2c1[C@](c1cc(C#CC3(C(F)(F)F)CN(C(=O)OC(C)(C)C)C3)cc(CO)c1)(C(C)C)C(C#N)=C(N)O2 [KDG-0301] | ≥ 20 min

Taken from patent US20230382920A1.
